Values from PubChem BioAssay (NCI)

Test system: SF-539 CNS
protocol.description: NCI-60 one-dose screen, 48 h
details: 10 µM unless noted
The panel holds about 83,000 compounds, 20% with a hit somewhere; the sample as a whole holds those more often. Active and inactive are the calls of the source. How the source made its calls: active means growth percent below 10; inactive means the rest.
Labels: T = active, F = inactive

# compound, group.label
records = [
    ("COc1ccc(-c2nc(Nc3nc4ccccc4[nH]3)nc(N)c2C#N)cc1", "F"),
    ("COC(=O)c1ccc2[nH]c(O)c(C(=Nc3ccc(N(C)C(=O)CN4CCN(C)CC4)cc3)c3ccc(OC)cc3)c2c1", "T"),
    ("Oc1ccc([S+](c2ccc(O)cc2)c2ccc(O)cc2)cc1", "F"),
    ("COc1cc(NC(C)CCCN)c2nc(C)ccc2c1OC (stereo unspecified)", "F"),
    ("COc1cc(CNC(=O)CCCC/C=C/C(C)C)ccc1OCc1nnc(Nc2ccccc2F)o1", "F"),
    ("Cc1ccc(C(C)C)c(OCc2ccc(C(=O)N/N=C/c3cccc(O)c3O)cc2)c1", "F"),
]

----------
Tested on: K-562 leukemia
protocol.description: NCI-60 one-dose screen, 48 h
details: 10 µM unless noted
The panel holds about 83,000 compounds, 20% with a hit somewhere; the sample as a whole holds those more often. Calls of active or inactive are those of the source. How the source made its calls: active means growth percent below 10; inactive means the rest.
Labels: active, inactive

# compound, group.label
records = [
    ("COC(=O)[C@H](Cc1cn(C)cn1)NC(=O)[C@H](Cc1c[nH]c2ccccc12)NC(=O)Nc1cc(C(F)(F)F)cc(C(F)(F)F)c1", "active"),
    ("NC(N)=N/N=C/c1cccc(Br)c1", "inactive"),
    ("Cc1c([C@H](C(Cl)Cl)[C@H](O)[C@H]2C[C@H](C)C(=O)O2)ccc2c1C(=O)[C@H]1[C@H]2C[C@@H](Br)[C@@]23O[C@@H](CO[C@H]2O)CC13C (some centres undefined)", "active"),
    ("O=C(/C(Br)=C/c1ccccc1)c1ccccc1", "active"),
    ("COc1ccc(OC)c(Cn2cc3c(c2-c2ccccc2)CCc2cnoc2-3)c1", "inactive"),
    ("COc1ccc(C(=O)c2no[n+]([O-])c2C(=O)c2ccc(OC)cc2)cc1", "active"),
    ("CN1CCN(Cc2ccc(NC(=O)c3cncc(C#Cc4c(N)ncc5ccc(F)cc45)c3)cc2C(F)(F)F)CC1", "active"),
    ("COc1cc2c(c(OC)c1OC)C(=O)CC(c1cccc(C(=O)Nc3cccc(Br)c3)c1)O2 (centres undefined)", "inactive"),
    ("COc1ccc(-n2nnnc2-c2cn[nH]c2C(F)(F)F)cc1", "inactive"),
]

----------
Collected growth values appear next to each entry.
Tested on: SNB-19 CNS
protocol.description: NCI-60 one-dose screen, 48 h (100 = growth as untreated, 0 = no growth, -100 = all killed)
details: 10 µM unless noted
About 83,000 compounds went through this panel and 20% of them were active in at least one assay; those are over-represented in the sample as a whole.
measure: growth (%)

# compound, measure, quantitative.readout
records = [
    ("O=C(N/N=C/c1coc2ccccc2c1=O)c1cc2oc(-c3ccccc3)cc2[nH]1", "growth", 92.9),
    ("Cc1[nH]n(C(=S)Nc2nc3cc(Cl)c(F)cc3s2)c(=O)c1N=Nc1ccc(F)c(Cl)c1", "growth", 89.7),
    ("O=Nc1ccc(O)c2ccccc12", "growth", 57.8),
    ("Cc1ccc(NCc2cn(-c3ccc(C(=O)O)cc3)nc2-c2ccc(C(=O)O)cc2)cc1", "growth", 104),
    ("COc1nc(OC)nc(-c2cc(-c3cc(OC)c(OC)c(OC)c3)no2)n1", "growth", 96.9),
    ("COc1ccc(C2CC(=O)c3c(O)cc(OC4OC(COC5OC(C)C(O)C(O)C5O)C(O)C(O)C4O)cc3O2)cc1O (stereo unspecified)", "growth", 110),
    ("COc1cc(OC)c(NC(=O)n2ncc3cc(Nc4ncnc5ccccc45)ccc32)cc1Cl", "growth", 90.6),
    ("Cc1ccc(CC(=O)O)c(C)c1", "growth", 102),
    ("O=C(/C=C\\c1ccccc1Cl)c1ccccc1", "growth", 94.9),
    ("O=C(O)CC1Cc2ccccc2C1C(=O)O (stereo unspecified)", "growth", 95),
    ("O=S(=O)(O)CCI", "growth", 102),
]

----------
System: LOX IMVI melanoma
protocol.description: NCI-60 one-dose screen, 48 h (100 = growth as untreated, 0 = no growth, -100 = all killed)
details: 10 µM unless noted
The panel holds about 83,000 compounds, 20% with a hit somewhere; the sample as a whole holds those more often.
Collected growth values appear next to each entry.
measure: growth (%)

# compound, quantitative.readout
records = [
    ("O=C(/C=C/c1c[nH]c2ccccc12)c1cc2ccccc2o1", 91.7),
    ("Cc1ccc(S(=O)(=O)N/N=C2\\CC3CCC2C3)cc1 (stereo unspecified)", 103),
    ("O=C(Cc1ccccc1[N+](=O)[O-])c1ccc2c(c1)OCO2", 96.9),
    ("c1ccc(-c2cn3ccnc3c(-c3ccc4ncn(C5CCCCC5)c4c3)n2)cc1", 60.4),
    ("CCOc1ccc(/C=N/NC(=O)c2cccc3ccccc23)cc1OCC", 92.7),
    ("O=C(N/N=C\\c1ccc(Cl)cc1)C(=O)N/N=C\\c1ccc(Cl)cc1", 106),
    ("COc1ccc(-n2nnnc2-c2cn[nH]c2C(F)(F)F)cc1", 95.6),
    ("CCOC(=O)C1=C(c2ccccc2)NC(=O)NC1CN1C(=O)c2ccccc2C1=O (stereo unspecified)", 110),
    ("Cc1cc(CSc2ccc(Cl)cc2)ccc1N", 98.6),
    ("COc1cc(NC(=O)CSc2nc3ccc(Cl)cc3c(=O)n2-c2ccc(F)cc2)cc(OC)c1OC", 73.5),
    ("CC(C)CCCCCOC(=O)c1ccccc1SSc1ccccc1C(=O)OCCCCCC(C)C", 100),
]

----------
Test system: LOX IMVI melanoma
protocol.description: NCI-60 one-dose screen, 48 h (100 = growth as untreated, 0 = no growth, -100 = all killed)
details: 10 µM unless noted
About 83,000 compounds went through this panel and 20% of them were active in at least one assay; those are over-represented in the sample as a whole.
Our labelling divides records by growth into ranges: bottom range: < 40%; center range: ≥ 40% and < 90%; top range: ≥ 90%

# compound, group.label
records = [
    ("O=C(Nc1cccc(Cn2c(=O)[nH]c3ccc(Oc4ncccn4)cc3c2=O)c1)c1cccc(F)c1", "center range"),
    ("c1cc[c]([Bi]([c]2ccccc2)[c]2ccccc2)cc1", "top range"),
    ("O=C(/C(Br)=C/c1ccccc1)c1ccccc1", "bottom range"),
    ("Cc1c(Cc2ccccc2)c(=O)oc2c(C)c(OCC(=O)n3nc(C#N)cc3N)ccc12", "top range"),
    ("O=C(CCCC(=O)Nc1ccc(Cn2nnc3cc(Cl)c(Cl)cc32)cc1)Nc1ccc(CN2N=NC3C=C(Cl)C(Cl)=CC32)cc1 (centres undefined)", "center range"),
    ("COc1cc(-c2nn(-c3ccc(NC(=O)c4ccc(Cl)c(Cl)c4)cc3)cc2-c2ccncc2)ccc1Cl", "bottom range"),
    ("Cc1c([C@H](C(Cl)Cl)[C@H](O)[C@H]2C[C@H](C)C(=O)O2)ccc2c1C(=O)[C@H]1[C@H]2C[C@@H](Br)[C@@]23O[C@@H](CO[C@H]2O)CC13C (some centres undefined)", "bottom range"),
    ("COc1ccc(-c2cc(C#N)c(NNC(C)=O)[nH]2)cc1", "top range"),
    ("NCCCOc1cc(Cl)ccc1NC(=O)c1cc2ccccc2cc1OCCCN", "bottom range"),
    ("COc1ccc(-c2nc(SCC(C)C)nc(Nc3ccc(C)cc3)c2C#N)cc1", "center range"),
    ("COc1cc([C@@H]2c3cc4c(cc3[C@H](O)[C@H]3COC[C@@H]23)OCO4)cc(OC)c1OC", "center range"),
    ("Cc1ccnc2c(NC(C)CCCN)cc(O)c(O)c12 (centres undefined)", "center range"),
    ("COC(=O)[C@@H]1[C@H](O)[C@H](C)[C@H](O)[C@H](C)/C=C\\C=C(C)C(=O)Nc2c(C)c(OC(C)=O)c3c(c2O)C(=O)C(C)=C2OCOC(=C23)C(C)=C[C@@](C)(O)[C@H](O)[C@@H](C)[C@H]1OC(C)=O", "top range"),
    ("c1ccc2[nH]c(-c3ccc(OCCCCCOc4ccc(-c5nc6ccccc6[nH]5)cc4)cc3)nc2c1", "bottom range"),
    ("COc1ccc(Cn2cc3c(c2-c2ccc(OC)cc2)CCc2cnoc2-3)cc1", "bottom range"),
    ("CCCCCCCCCCCCc1ccc([N+](CC)(CC)CC)cc1", "bottom range"),
    ("Cc1cc2cn3c4ccc(O)cc4nc(N)c3c2cc1C", "bottom range"),
    ("Cc1nnc(/N=C2\\NC(=O)/C(=C/C=C/c3ccccc3)S2)s1", "center range"),
    ("O=C(C(=O)N1CCOCC1)c1ccc(O[C@H]2O[C@H](CO)[C@@H](O)[C@H](O)[C@@H]2O)cc1", "top range"),
    ("Oc1ccccc1/C=N/N=C/c1c(O)ccc2ccccc12", "center range"),
    ("CC(=O)c1cc(Nc2cc(C)nc(N)n2)cc(C(C)=O)c1", "top range"),
    ("CCC(CCCN1C(=O)c2ccccc2C1=O)Nc1cc(OC)cc2c(C)ccnc12 (centres undefined)", "top range"),
    ("CC(CCN1CCN(CCC(C)CC(C)(C)C)C1CC(C)CC(C)(C)C)CC(C)(C)C (centres undefined)", "center range"),
    ("CCOC(=O)c1cc(-c2ccc(OC)cc2)[nH]c1NNC(=O)CCOC", "top range"),
    ("CCCCCCCCc1ccc(CCC(N)(CO)CO)cc1", "bottom range"),
    ("CC(=O)Nc1nc(C)c(C(=O)NNC(=O)Nc2ccccc2)s1", "top range"),
    ("C=CCNC(=S)NNc1ccc([N+](=O)[O-])cn1", "center range"),
    ("COC(=O)/C(Br)=C/c1c[nH]c2ccc(Br)cc12", "center range"),
    ("COc1ccc2cnc(N)c(C#Cc3cc(C(=O)Nc4ccc(CN5CCN(C)CC5)c(C(F)(F)F)c4)cnc3C)c2c1", "bottom range"),
    ("Cc1ccc(C(=O)Nc2ccc(CN3CCN(C)CC3)c(C(F)(F)F)c2)cc1C#Cc1cnc(N)c2ccc(F)cc12", "bottom range"),
    ("COc1cc(-c2cc3cnccc3c3nc(N)c4ccncc4c23)cc(OC)c1OC", "bottom range"),
    ("Cc1ccc2c(c1)C(=O)CCS2", "top range"),
    ("O=C(/C=C1\\C(=O)N(Cc2ccc([N+](=O)[O-])cc2)c2ccccc21)c1ccc(OCCN2CCCC2)cc1", "bottom range"),
    ("O=c1c(N=Nc2nccs2)c(-c2ccccc2)[nH]n1-c1nc(-c2ccccc2)cs1", "center range"),
    ("C[C@]12CC[C@H]3[C@@H](CC[C@H]4C[C@@H](O)CC[C@@]43C)[C@@H]1CC(=O)C2", "top range"),
    ("CCOC(=O)C1=C(C(F)(F)F)NC(=O)NC1CN1C(=O)c2ccccc2C1=O (centres undefined)", "top range"),
]
